# target_or_system: UniProt:P08183
# Sequence (P08183 whole entry): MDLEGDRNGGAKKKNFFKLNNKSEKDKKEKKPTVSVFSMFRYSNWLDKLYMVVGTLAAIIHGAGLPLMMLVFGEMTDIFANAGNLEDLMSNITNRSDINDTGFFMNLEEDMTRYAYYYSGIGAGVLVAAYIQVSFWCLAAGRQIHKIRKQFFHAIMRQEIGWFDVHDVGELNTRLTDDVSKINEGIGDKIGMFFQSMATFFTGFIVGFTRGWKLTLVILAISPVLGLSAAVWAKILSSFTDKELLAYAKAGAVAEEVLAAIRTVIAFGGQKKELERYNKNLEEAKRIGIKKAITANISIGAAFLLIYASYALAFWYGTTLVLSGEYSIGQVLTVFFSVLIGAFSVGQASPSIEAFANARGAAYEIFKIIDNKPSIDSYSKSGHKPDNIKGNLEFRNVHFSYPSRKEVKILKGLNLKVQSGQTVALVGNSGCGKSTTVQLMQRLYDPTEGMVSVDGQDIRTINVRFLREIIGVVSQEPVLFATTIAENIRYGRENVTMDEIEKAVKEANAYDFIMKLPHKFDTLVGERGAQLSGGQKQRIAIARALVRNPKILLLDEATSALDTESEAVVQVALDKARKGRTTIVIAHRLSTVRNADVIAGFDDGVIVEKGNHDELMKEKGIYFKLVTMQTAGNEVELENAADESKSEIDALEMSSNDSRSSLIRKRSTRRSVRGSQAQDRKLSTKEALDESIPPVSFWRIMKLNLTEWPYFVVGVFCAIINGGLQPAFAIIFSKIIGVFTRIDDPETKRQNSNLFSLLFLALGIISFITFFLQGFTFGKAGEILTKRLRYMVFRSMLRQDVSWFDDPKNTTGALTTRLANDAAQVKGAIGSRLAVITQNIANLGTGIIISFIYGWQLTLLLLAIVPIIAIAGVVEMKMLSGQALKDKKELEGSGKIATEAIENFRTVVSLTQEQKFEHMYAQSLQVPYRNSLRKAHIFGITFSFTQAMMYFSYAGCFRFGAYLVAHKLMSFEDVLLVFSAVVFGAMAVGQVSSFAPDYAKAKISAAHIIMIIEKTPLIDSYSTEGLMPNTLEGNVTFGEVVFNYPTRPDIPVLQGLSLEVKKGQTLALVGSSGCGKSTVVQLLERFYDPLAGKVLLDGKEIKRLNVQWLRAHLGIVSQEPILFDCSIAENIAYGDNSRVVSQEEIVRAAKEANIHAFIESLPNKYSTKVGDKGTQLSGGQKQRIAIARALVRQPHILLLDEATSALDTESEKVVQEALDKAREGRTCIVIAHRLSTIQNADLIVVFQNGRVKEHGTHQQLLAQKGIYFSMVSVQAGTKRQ
# assay_explanation: Activity at human MDR1 expressed in pig LLC-PK1 cells assessed as apparent permeability at 10 umol/L after 2 hrs by LC-MS/MS analysis
# Type: ADME, cell-based
test_readout: Papp at 2 h, 10 µM
Could you write the number and then its unit?

Form field: reported Papp at 2 h, 10 µM of CC[C@H](NC)C(=O)N[C@H](C(=O)N1C[C@@H]2Cc3cc(Cl)cc(Cl)c3N2C[C@H]1C(=O)N[C@@H]1CCOc2ccccc21)C1CCCCC1 7.5 ×10⁻⁶ cm/s

Form field: reported Papp at 2 h, 10 µM of CC[C@H](NC)C(=O)N[C@H](C(=O)N1C[C@H]2Cc3ccccc3N2C[C@H]1C(=O)N[C@@H]1CCOc2ccccc21)C1CCCCC1 8.6 ×10⁻⁶ cm/s

Form field: reported Papp at 2 h, 10 µM of CC[C@H](NC)C(=O)N[C@H](C(=O)N1C[C@@H]2Cc3cc(C#N)ccc3N2C[C@H]1C(=O)N[C@@H]1CCOc2ccccc21)C1CCCCC1 1.4 ×10⁻⁶ cm/s

Form field: reported Papp at 2 h, 10 µM of CCO[C@@H]1C[C@@H]2CN(C(=O)[C@@H](NC(=O)[C@H](C)NC)C3CCC(F)(F)CC3)[C@H](C(=O)N[C@@H]3CCOc4ccccc43)CN2C1 0.1 ×10⁻⁶ cm/s

Form field: reported Papp at 2 h, 10 µM of CC[C@H](NC)C(=O)N[C@H](C(=O)N1C[C@@H]2Cc3ccccc3N2C[C@H]1C(=O)N[C@@H]1CCOc2ccccc21)C1CCCCC1 2.5 ×10⁻⁶ cm/s

Form field: reported Papp at 2 h, 10 µM of CN[C@@H](C)C(=O)N[C@H](C(=O)N1C[C@H]2Cc3ccccc3N2C[C@H]1C(=O)N[C@@H]1CCOc2ccccc21)C1CCCCC1 4.1 ×10⁻⁶ cm/s

Form field: reported Papp at 2 h, 10 µM of CN[C@@H](C)C(=O)N[C@H](C(=O)N1C[C@H]2CCCN2C[C@H]1C(=O)N[C@@H]1CCOc2ccccc21)C1CCCCC1 0.5 ×10⁻⁶ cm/s

Form field: reported Papp at 2 h, 10 µM of CN[C@@H](C)C(=O)N[C@H](C(=O)N1C[C@@H]2CCCN2C[C@H]1C(=O)N[C@@H]1CCOc2ccccc21)C1CCCCC1 0.3 ×10⁻⁶ cm/s

Form field: reported Papp at 2 h, 10 µM of CC[C@H](NC)C(=O)N[C@H](C(=O)N1C[C@@H]2Cc3cc(Cl)ccc3N2C[C@H]1C(=O)N[C@@H]1CCOc2ccccc21)C1CCCCC1 6.4 ×10⁻⁶ cm/s

The values you see were collected from ChEMBL document CHEMBL3091457.
